Reported activity change, negative = inhibition values for the following compounds.
# tgt: Nicotinamide N-methyltransferase (Homo sapiens)
# assay notes: Primary Screen for Target Class Profiling of Small Molecule Inhibitors of Methyltransferases; further: on the % scale 0 is the no-effect control and ±100 the full control effect
# experimental parameters: purified enzyme, MTase-Glo SAH luminescence; measured here: NNMT inhibition; at 40 µM; stronger effect = lower value
# Experimental: PI: Matthew D. Hall Ph.D. and Quinlin M. Hanson Ph.D. National Center for Advancing Translational Sciences (NCATS) National Institute of Health (NIH), Rockville, MD […] High-through put screening assays were developed at the National Center for Advancing Translational Science (NCATS) for the enzymes NNMT, PNMT, HNMT, GNMT, COMT, and GAMT. Enzymatic activity was measured as a function of SAM cofactor conversion using the MTase Glo kit (Promega) for all enzymes. […]
Hit rate of the full screen: of about 25,000 compounds, about 970 (3.9%) were called active. Roughly 8% stayed inconclusive and do not appear here. The entries come from a sample that favours actives as a whole.
Quick note: give the figure in %, leave out the unit.

                                   compound                        observation_type  scale_unit  observed
0  CN(CCCNC(=O)CCCc1nnc2n3nc(-c4ccccc4)nc3c3ccccc3n12)Cc1ccccc1  activity change, negative = inhibition           %     0.458
1  Cc1cc(C(=O)N2CCCCCC2CN2CCC(C)CC2)nn1C (stereo not given)  activity change, negative = inhibition           %     -2.25
2  CCCCNC(=O)CCc1nnc2n(CC(C)C)c(=O)c3ccccc3n12  activity change, negative = inhibition           %      4.71
3  COc1cc2c(cc1O)NC(=O)CC2c1cn[nH]c1-c1cc(C)ccc1C (stereo not given)  activity change, negative = inhibition           %     -38.3

INPUT: Indicate the recorded activity change, negative = inhibition value for this compound: CN(Cc1cc(C2CC2)n[nH]1)C(=O)C(c1ccc(F)cc1)N(C)C (stereo not given)
OUTPUT: 0.211
